- study.system: UniProt:P00918
- assay.details: In vitro binding affinity against human carbonic anhydrase II (hCA-II human cloned isozyme).
assay.readout: Ka (µM)

Illustrative cases are given below, each with its answer.
compound: O=C(NCCc1c[nH]cn1)NS(=O)(=O)c1ccc(F)cc1
endpoint.result: 0.09
//
compound: O=C(O)c1cccc(S(=O)(=O)NCCc2c[nH]cn2)c1
endpoint.result: 0.5
//
compound: O=S(=O)(NCCc1c[nH]cn1)c1ccc2ccccc2c1
endpoint.result: 9

(I) Cc1ccc(S(=O)(=O)NCCc2c[nH]cn2)cc1
(II) CC1(C)C2CCC1(CS(=O)(=O)NCCc1c[nH]cn1)C(=O)C2 (configuration not stated)
Query: Just curious, which one has the larger Ka reading, I or II ? Refer to your chosen entry by its label in the reply.
Response: I

(1) O=S(=O)(NCCc1c[nH]cn1)c1ccccc1
(2) O=S(=O)(NCCc1c[nH]cn1)c1c(F)c(F)c(F)c(F)c1F
Query: When the recorded Ka values are compared, which is smaller: that of 1 or that of 2 ? Answer by quoting the chosen item's label.
Response: 2

(a) O=S(=O)(NCCc1c[nH]cn1)c1ccc(Cl)cc1
(b) O=[N+]([O-])c1ccccc1S(=O)(=O)NCCc1c[nH]cn1
Query: Which one would you say has the larger Ka value: a , or b ? Please respond with the label that marks your chosen entry.
Response: a
(a: 13 µM, b: 8 µM)

(1) O=S(=O)(NCCc1c[nH]cn1)C(F)(F)F
(2) CN(C)c1cccc2c(S(=O)(=O)NCCc3c[nH]cn3)cccc12
Query: Please indicate which item has the smaller measured Ka: 1 versus 2 When you have decided, please share the label of that item.
Response: 1
